Source of measurements: the supplement of paper PMC9170038

# Tested on: K4 kissing-loop RNA reporter;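 also: bound reporter read as fluorescence of individual clusters on recovered sequencing chips by microscopy, with normalized cluster intensities fitted with a binding model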
# Protocol Text: apparent KD of K4 kissing-loop reporter; higher = weaker reporter binding
# Applied Conditions: Eterna round: R107; input ligand: tryptophan 2.4 mM
Measure: apparent KD of K4 kissing-loop reporter (nM)
Give bare numbers, in nM.

| Sequence Code | Quantity Unit | apparent KD of K4 kissing-loop reporter |
| --- | --- | --- |
| GGACAAGCAUUAGGAUAUAUAGAGCGAAACGCAAUUGAGUGAUGUUCAAAAGCAUAGGGCGAGGAAAUAGAAGGAAUGCACGGGC [Default title] | nM | 152 |
| CUGUAUCAUAUUGAUACCAGAGAAAGAACCAGUGAUGUUGGAAAAGACGAAUAAAUUAUACUCCCUUGGCAGCGGAAAUGAACAG [Totally accidental] | nM | 59.9 |
| GGUGUUGUUUGUGCUGUUUUCUUCGUUUCUCGAGGACCGGUACGGCCGCCACUCGAGUGAUGUUUGGGUAGCGAUGUUUGUUAGU [Bdazzled - #3 - Exc. Tryptophan A] | nM | 470 |
| UGACUGGACUGAAGGAGCGCUAAAACUCCUAGUGAUGUUGGGAAAACGAGACAAAGUCUCGAGCAGGUAGGUCGCAGUCUAGUCU [ArgBS 22 #SwitchBubble #StaticStem] | nM | 258 |
| GCAGUGAUGUUGCUGAUGUACAGUGGGAUACGAGGACCGGUACGGCCGCCACUCGUACAGAACUUAUUAAUACAUCGAUAAGUGA [XIV] | nM | 687 |
| CCAUCGCUAUUCGAUACCAGCUACUUAGUGAUGUUAAGUUAAAAUAAAUUGUAGAUUAAAAGCCCUUGGCAGCGAAUAGUGAUGG [Theophylline B K4 19] | nM | 136 |
| CCUAUCUCAUACGAUACCAGUCAAUGAUAUUUUAUCAAUGCCAUCACCGAGUGAUGUUCGGACCCUUGGCAGCGUAUGGGAUAGG [whbob_Ex_Theo_B_sa101] | nM | 238 |
| UUUUUAUGCAGUGAUGUUGCUAAUAUAACAGAGGAUAUGCAUUAAAGCAGAAGGCUGAAAUACUAUACUUUAAUAAAUUAAAUUU [JR_SSFMNA_Sub013] | nM | 82.7 |
| ACACUUUACGUAGGAUAUGCGACGAGUGAUGUUCGUCAGGCGGCUUUAGAUUAUACAAGCCGCCUAGCAGAAGGACGGGCAGUGU [Araar] | nM | 170 |
| UAUAUAGUGACGGCCGCCACUAUUGUGAUUUAAUUGUUAGAGUGAUGUUUUGUUGUUUGAUUUUGUAGGACCGGGUUAUAUGUUA [vnbbwzmullin] | nM | 839 |

Please go through the list and note apparent KD of K4 kissing-loop reporter for each sequence.
1. AAGUGUGUGGCGGCCGCCACUAGAAUCCAGUGAUGUUGGAGUUAUCAUAUAAAUGAUAAUCAACAUAGGACCGGGCCAUAUAGAA [Same State - Tryptophan B (Freestyle 7)]
2. UCGGAGGGAGCGGCCGCCACUGUAUUACCUCGACGAACGCCGGUUUUCAUGAAGUGAUGUUUCGCCAGGACCGGGCUAAUCUGAG [theeternabot_exclusion_KL_Trp_B_46]

Marked response:
1. 783
2. 206

Batch: apparent KD of K4 kissing-loop reporter for all items listed.
1. AAGAAUGCAGGAAGGAGCGGCGGACGGAGUGAUGUUCCGGCUAGUGAUGUUAGCAAACACCGCCAGGUAGGUCGCCUGCUGCCCU [Same State Arginine B GF 6]
2. AGUGAUGUGGGAAGGAGCGGUAUAUGAGUUCAGUGAUGUUGAAGUGAUGCUGUAGUGAUGUGCCAGGUAGGUCGCCUAGAUGUUA [whbob_Ex_Arginine_B_2th165]
3. UUGGCUGGACGGGAUACCAGCCAAAUCGUGUGCUUAGGAUGUCUAAGAGCCAGUGAUGUUGGCCCUUGGCAGCCCUCCUAGCUUG [Ordigear]
4. ACGAUCAUGUCGGCCGCCACUGAGAGUAGUGAUGUUACUCUUUUCCUUUAGUUAUUAUAUUUUAUCAGGACCGGGACAUGUUCGU [JR_ExcTryptoB_Sub022]
5. UCCUGCAAUCUGCCACGAAAGUGGGUUGAUACCAGAGUCGAAAGACUCCCUUGGCAGCGAGUGAUGUUCGUUGCAGGUAAAUAAA [MatMod 8 - Jieux - Exclusion - Theophylline A]
6. GCAAACCUCAGUGAUGUUGAGUAAUCGGAAGGAGCGCGUGAAAACGCAGGUAGGUCGCCGAUACAUGAAGUAUCUUCGUGUUUGC [Arginine A K4 23]
7. UGUCAUUGGUCGGCCGCCACUUCAAGGUCAAAGACCAGAGUGAUGUUCUUGCACAAAGUGCUUAGAAGGACCGGGACCGAUGACU [TrypBS 13 #SwitchBubble #K4Middle]
8. AAGCAGUCUCUUGUAGUCAUCGAAGAUGAACGAGGACCGGUACGGCCGCCACUCGGAGUGAUGUUCCGAAGGCUGCAAAAUAAAA [MatMod 18 - Jieux - Exclusion - Tryptophan A]

Marked response:
1. 151
2. 290
3. 136
4. 77.9
5. 168
6. 274
7. 622
8. 324

For each of the sequences below, note its apparent KD of K4 kissing-loop reporter.
1. AUUUGUUUAUGUGAUACCAGACUUUGCAGUGAUGUUGCUUUUAUUUUUGAAUUUUAAAUAGUCCCUUGGCAGCACUAUGUAUUUA [JR_SSTheophyB_Sub009]
2. GGUGUUGUUUGUGCUGUUUUCCUCGUUUCUCGAGGACCGGUACGGCCGCCACUCGAGUGAUGUUUGGGUAGCGAUCUUUGUUAGU [Bdazzled - #5 Exc. Tryptophan A]

Marked response:
1. 60.6
2. 281
